Sourced from PubChem BioAssay (NCI)

- Test system: HCC-2998 colon
- experimentDescription: NCI tumour cell line growth inhibition, 48 h
Property: TGI; scope: individual compounds
property: TGI (µM)

compound	property	qualifier	quantitativeReadout
COC(=O)C(Cc1cn(C(C)=O)c2ccccc12)P(=O)(OC)OC (stereo not given)	TGI	>	100
COC(=O)CCc1cc(OC)c2c(c1)C(C(=O)OC)C(c1ccc(OC)c(OC)c1)O2 (stereo not given)	TGI	>	100
COc1ccc(/C=N\NC(=O)CN2CCN(c3cc4c(cc3F)c(=O)c(C(=O)N/N=C/c3ccc(OC)c(OC)c3)cn4C3CC3)CC2)cc1OC	TGI	=	12.7
Cc1ccc2nc(CN3CCCC(O)C3)cc(=O)n2c1 (stereo not given)	TGI	>	100
N#CC(C#N)N=Cc1ccncc1	TGI	>	100
CNc1c2cccc(C)c2nc2c(C(=O)NCCN(C)C)cccc12	TGI	=	0.192
COc1cc(OC)c(/C=C/S(=O)(=O)Cc2cnc(OC)c(N)c2)c(OC)c1	TGI	>	100
CC1=C(C(=O)Nc2ccccc2C)C(c2ccc(Cl)c(Cl)c2)C(C(=O)Nc2ccccc2C)=C(C)N1	TGI	=	69.9
CC1=C2[C@@H](CC1)[C@]1(C)O[C@@](C3CCCCC3)(C[C@H]1OC(=O)CO)[C@H]2OC(=O)/C=C/c1ccccc1	TGI	=	18.4
COc1cccc(OC/C(N=Cc2cccnc2)=N/NC(=O)c2ccncc2)c1	TGI	>	100
